B1: library; numbered along this chain (parent)
chain: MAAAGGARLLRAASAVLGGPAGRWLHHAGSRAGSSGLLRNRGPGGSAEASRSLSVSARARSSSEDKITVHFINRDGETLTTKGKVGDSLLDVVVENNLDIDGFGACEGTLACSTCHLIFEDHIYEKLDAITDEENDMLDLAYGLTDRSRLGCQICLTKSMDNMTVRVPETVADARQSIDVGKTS

- Variants of: B1
- assay: scaled log2 fold change in cell abundance, elesclomol vs control (0 = silent mean, 1 = nonsense mean) (scaled log2 ratio); higher = higher viability under elesclomol (loss of FDX1 cuproptosis function);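 also: variant abundance is its share of total variant reads in each endpoint sample, from next-generation sequencing of the integrated ORF PCR-amplified out of genomic DNA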
- study_conditions: with ABC1 FDX1 KO; elesclomol 5 nM; glucose 10 mM; 14 days
Record form. Attribute: scaled log2 fold change. Fill in for each entry.
Answers are plain numbers.

Completed entries (count: 3):
{"variant_designation": "A15I", "scaled log2 fold change": -0.367}
{"variant_designation": "N97D", "scaled log2 fold change": 0.0523}
{"variant_designation": "L38T", "scaled log2 fold change": 0.403}

Hey, quick one: what's scaled log2 fold change for each of these?
1. Q176L
2. T131L
3. R11C
4. F103H
5. D139S

[-0.0736, -0.29, 0.0344, 0.673, -0.201]

Could you tell me scaled log2 fold change for each of these variants? They are listed below.
1. V92D
2. L53F
3. D146Q
4. K158P
5. L110F
6. D146V
7. G83T
8. G83S

1.07
0.298
-0.0405
0.0465
0.167
-0.227
0.0201
0.0697

Give one value of scaled log2 fold change per listed variant.
1. D139P
2. S61Q
3. V85K
4. S159N
5. S30T
6. T131D
7. I154F

[-0.0434, 0.577, 0.192, 0.273, -0.784, 0.127, 0.839]
